Every entry's value here was drawn from ChEMBL document CHEMBL3872205.

test: MRT (0 to infinity) in Wistar rat liver at 30 mg/kg, po by HPLC analysis; assay type: ADME, organism-based
endpoint_label: MRT inf (h)
Provide the reading as a plain figure in h.

# MRT inf (compound: CCCCC1=NC2(CCCC2)C(=O)N1Cc1ccc2c(ccn2-c2ccccc2-c2nnn[nH]2)c1 ) is 5.49

* * *

experiment: AUC (0 to 72 hrs) in Wistar rat spleen at 15 mg/kg, po by HPLC analysis; format: ADME, organism-based; set-up: dose 15 mg/kg, time < 72 hr, route oral
endpoint_label: AUC(0-t) at 72 h (ng·h/mL)
Provide the reading as a plain figure in ng·h/mL.

# AUC(0-t) at 72 h (compound: CCCCC1=NC2(CCCC2)C(=O)N1Cc1ccc2c(ccn2-c2ccccc2-c2nnn[nH]2)c1 ) is 11900

* * *

test: Half life in Wistar rat kidney at 10 mg/kg, po by HPLC analysis; assay type: ADME, organism-based
endpoint_label: half-life (h)
Provide the reading as a plain figure in h.

# half-life (molecule: CCCCC1=NC2(CCCC2)C(=O)N1Cc1ccc2c(ccn2-c2ccccc2-c2nnn[nH]2)c1 ) is 26.9

* * *

test: AUC (0 to infinity) in Wistar rat kidney at 15 mg/kg, po by HPLC analysis; format: ADME, organism-based; set-up: dose 15 mg/kg, time infinity, route oral
endpoint_label: AUC(0-inf) (ng·h/mL)
Provide the reading as a plain figure in ng·h/mL.

# AUC(0-inf) (molecule: CCCCC1=NC2(CCCC2)C(=O)N1Cc1ccc2c(ccn2-c2ccccc2-c2nnn[nH]2)c1 ) is 7690

* * *

assay: Tmax in Wistar rat kidney at 15 mg/kg, po by HPLC analysis; type: ADME, organism-based
endpoint_label: Tmax

# Tmax (compound: CCCCC1=NC2(CCCC2)C(=O)N1Cc1ccc2c(ccn2-c2ccccc2-c2nnn[nH]2)c1 ) is 2.33 h

* * *

test: AUC (0 to infinity) in Wistar rat spleen at 10 mg/kg, po by HPLC analysis; format: ADME, organism-based; design: dose 10 mg/kg, time infinity, route oral
endpoint_label: AUC(0-inf)
A bare number is not enough; add the unit after it.

# AUC(0-inf) (compound: CCCCC1=NC2(CCCC2)C(=O)N1Cc1ccc2c(ccn2-c2ccccc2-c2nnn[nH]2)c1 ) is 11.7 µg·h/mL

* * *

test: MRT (0 to 72 hrs) in Wistar rat Heart at 15 mg/kg, po by HPLC analysis; type: ADME, organism-based
endpoint_label: MRT last
A bare number is not enough; add the unit after it.

# MRT last (compound: CCCCC1=NC2(CCCC2)C(=O)N1Cc1ccc2c(ccn2-c2ccccc2-c2nnn[nH]2)c1 ) is 16.9 h

* * *

experiment: MRT (0 to infinity) in Wistar rat brain at 10 mg/kg, po by HPLC analysis; format: ADME, organism-based
endpoint_label: MRT inf
A bare number is not enough; add the unit after it.

# MRT inf (compound: CCCCC1=NC2(CCCC2)C(=O)N1Cc1ccc2c(ccn2-c2ccccc2-c2nnn[nH]2)c1 ) is 8.1 h

* * *

experiment: AUC (0 to infinity) in Wistar rat kidney at 10 mg/kg, po by HPLC analysis; assay type: ADME, organism-based; parameters: dose 10 mg/kg, time infinity, route oral
endpoint_label: AUC(0-inf) (ng·h/mL)
Provide the reading as a plain figure in ng·h/mL.

# AUC(0-inf) (compound: CCCCC1=NC2(CCCC2)C(=O)N1Cc1ccc2c(ccn2-c2ccccc2-c2nnn[nH]2)c1 ) is 10800
